Recorded 8OG:A repair function score, one value per entry.
B1: library; numbered along this chain (parent)
chain: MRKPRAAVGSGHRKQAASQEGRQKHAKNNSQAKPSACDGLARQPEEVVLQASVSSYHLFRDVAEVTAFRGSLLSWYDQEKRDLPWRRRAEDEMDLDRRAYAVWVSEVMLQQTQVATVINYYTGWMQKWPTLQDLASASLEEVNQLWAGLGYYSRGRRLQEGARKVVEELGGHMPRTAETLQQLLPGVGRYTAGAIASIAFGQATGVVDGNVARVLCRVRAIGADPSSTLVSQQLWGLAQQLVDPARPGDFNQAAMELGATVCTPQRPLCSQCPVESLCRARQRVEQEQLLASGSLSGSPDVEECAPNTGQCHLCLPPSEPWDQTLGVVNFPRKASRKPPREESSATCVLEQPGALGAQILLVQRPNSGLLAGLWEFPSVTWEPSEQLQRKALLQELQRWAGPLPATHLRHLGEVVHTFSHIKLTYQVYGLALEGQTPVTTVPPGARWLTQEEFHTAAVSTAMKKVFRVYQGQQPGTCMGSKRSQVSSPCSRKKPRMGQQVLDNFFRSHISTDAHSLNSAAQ

- Variants of: B1
- assay: 8OG:A repair function score (normalized; synonymous = 0, nonsense = -1) (normalized log-likelihood score); higher = more repair activity (WT-like);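 further: cells sorted at 72 h after reporter transfection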
- experimental setup: with 8OG:A DNA repair reporter (GFP) in HEK-293 MUTYH KO cells

Exercise: Which value of 8OG:A repair function score has been reported for V438I in the records?
Key: -0.407

Exercise: Which value of 8OG:A repair function score has been reported for E452F in the records?
Key: -0.387

Exercise: Which value of 8OG:A repair function score has been reported for A445I in the records?
Key: -0.318

Exercise: Which value of 8OG:A repair function score has been reported for D502A in the records?
Key: -0.0186
